// data source = the supplement of paper PMC5662767

Task for the reader: assign each of the following molecules its reported normalized SmoIP GFP fluorescence.
# Test system: Drosophila S2 cl14 SmoIP sensor cells
# assay procedure: normalized SmoIP GFP fluorescence (untreated unstimulated = 0%, untreated Hh-stimulated = 100%); higher = more Smo activation sensor fluorescence
# test parameters: stimulation: mock conditioned medium (-Hh); compound concentration: 2 uM; 24 h
Counter-ions that a name gives are not always drawn.
Enter your answer as a number in %; do not include the unit.

Problem: Please supply the value of reported normalized SmoIP GFP fluorescence for the item "NC(=O)c1cnc(N[C@@H]2CCCC[C@@H]2N)nc1Nc1cccc(-n2nccn2)c1"
Result: 24.4

Problem: Look up normalized SmoIP GFP fluorescence of COCCc1ccc(OCC(O)CNC(C)C)cc1 (stereo not given) [metoprolol-tartrate] and report it.
Result: -9.85

Problem: Name the recorded normalized SmoIP GFP fluorescence of the molecule listed here: COc1cc2nc(N(C)CCCNC(=O)C3CCCO3)nc(N)c2cc1OC (stereo not given) [Alfuzosin-hydrochloride]
Result: -2.42

Problem: Provide one value: measured normalized SmoIP GFP fluorescence of CC(=O)O[C@]1(C(C)=O)CC[C@H]2[C@@H]3C=C(Cl)C4=CC(=O)[C@@H]5C[C@@H]5[C@]4(C)[C@H]3CC[C@@]21C [cyproterone-acetate]
Result: -6.79

Problem: Provide normalized SmoIP GFP fluorescence value for the following molecule: c1cnc2cc3c(cc2n1)[C@@H]1CNC[C@H]3C1 [Varenicline-tartrate]
Result: 2.97

Problem: Tell us which normalized SmoIP GFP fluorescence value is on record for O=C1Nc2ccccc2/C1=C1/Nc2ccccc2C1=O [Indirubin]
Result: -11.4

Problem: Indicate the recorded normalized SmoIP GFP fluorescence value for this molecule: "c1ccc(-c2[nH]ncc2-c2ccnc3ccccc23)nc1"
Result: 0.247

Problem: Specify reported normalized SmoIP GFP fluorescence for the molecule shown: NC(=O)c1ncn([C@@H]2O[C@H](CO)[C@@H](O)[C@H]2O)c1N [Acadesine]
Result: -15.4

Problem: Fill in reported normalized SmoIP GFP fluorescence for this entry: "COc1cc(OC)c2c(=O)[nH]c(-c3cc(C)c(OCCO)c(C)c3)nc2c1"
Result: -3.16

Problem: Give recorded normalized SmoIP GFP fluorescence. CCN(CC)CC(=O)Nc1c(C)cccc1C [Lidocaine]
Result: 2.97

Problem: Quick one: give measured normalized SmoIP GFP fluorescence for "CNCc1ccc(-c2[nH]c3cc(F)cc4c3c2CCNC4=O)cc1"
Result: 0.489

Problem: Return reported normalized SmoIP GFP fluorescence. Input molecule: NC(N)=N/N=C/c1c(Cl)cccc1Cl [guanabenz-wy-8678-acetate]
Result: -4.7

Problem: Quote normalized SmoIP GFP fluorescence reported for "CC(C)c1cnn2c(NCc3ccccc3)cc(NCCCCCCN)nc12" please.
Result: 10.7

Problem: Note normalized SmoIP GFP fluorescence for the molecule shown: "O=C(Nc1ccccc1Br)N[C@@H]1CCN(c2ccc(C(F)(F)F)cn2)C1"
Result: -2.82

Problem: Please indicate normalized SmoIP GFP fluorescence recorded for "CN(C)CC[C@H](CSc1ccccc1)Nc1ccc(S(=O)(=O)NC(=O)c2ccc(N3CCN(Cc4ccccc4-c4ccc(Cl)cc4)CC3)cc2)cc1[N+](=O)[O-]"
Result: 2.97

Problem: Could you please provide reported normalized SmoIP GFP fluorescence for CNC(=O)c1ccccc1Sc1ccc2c(/C=C/c3ccccn3)n[nH]c2c1 [Axitinib] ? Thanks!
Result: 28.7

Problem: Please indicate normalized SmoIP GFP fluorescence recorded for Cc1cc(Cl)ccc1OCCCC(=O)NO [Droxinostat]
Result: -5.76

Problem: Indicate the recorded normalized SmoIP GFP fluorescence value for this molecule: CCOC(=O)c1ccc(NC2CCCCC2)c(N)c1 [ferrostatin-1-fer-1]
Result: -3.05

Problem: Output normalized SmoIP GFP fluorescence of "CO[C@@H](C(=O)N1Cc2[nH]nc(NC(=O)c3ccc(N4CCN(C)CC4)cc3)c2C1)c1ccccc1"
Result: 12.4

Problem: Quick one: give measured normalized SmoIP GFP fluorescence for "Cc1cnc(-c2cnc(NCCNc3ccc(C#N)cn3)nc2-c2ccc(Cl)cc2Cl)[nH]1"
Result: -0.151

Problem: Specify reported normalized SmoIP GFP fluorescence for the molecule shown: C[C@H](NCc1ccc(OCc2cccc(F)c2)cc1)C(N)=O [Safinamide-mesilate]
Result: 4.04

Problem: Read off the recorded normalized SmoIP GFP fluorescence for "CCCc1cc(C)[nH]c(=O)c1CNC(=O)c1cc(-c2ccc(N3CCN(C(C)C)CC3)nc2)cc2c1cnn2C(C)C"
Result: 5.7

Problem: Input "CN(C)Cc1ccc(-c2nc3cccc4c3n2CCNC4=O)cc1" , output reported normalized SmoIP GFP fluorescence.
Result: -14.3

Problem: Note down normalized SmoIP GFP fluorescence recorded for O=C1C[C@@H](c2ccc(O)cc2)Oc2cc(O)cc(O)c21 [Naringenin]
Result: -6.61

Problem: Complete the entry with normalized SmoIP GFP fluorescence for Cc1cc(O)c2c(c1)C(=O)c1cccc(O)c1C2=O [Chrysophanic-acid-Chrysophanol]
Result: -7.42

Problem: Using the record for N=C(N)Nc1ccc(C(=O)Oc2ccc3cc(C(=N)N)ccc3c2)cc1 [Nafamostat-mesylate] , state its measured normalized SmoIP GFP fluorescence.
Result: 16.2

Problem: Answer with the recorded normalized SmoIP GFP fluorescence for the molecule listed here: "O=C1NC(=O)/C(=C/c2ccc(-c3ccc(F)cc3O)o2)S1"
Result: 0.588

Problem: Indicate the recorded normalized SmoIP GFP fluorescence value for this molecule: COc1ccc(-c2nc3ccc(C4=NNC(=O)CC4C)cc3[nH]2)cc1 (stereo not given) [Pimobendan(Vetmedin)]
Result: 4.8

Problem: Give the reported value of normalized SmoIP GFP fluorescence for this record: "Cc1ccc(F)c(NC(=O)Nc2ccc(-c3cccc4[nH]nc(N)c34)cc2)c1"
Result: 0.274

Problem: Tell us which normalized SmoIP GFP fluorescence value is on record for COC(=O)[C@]12CCC(C)(C)C[C@H]1[C@H]1C(=O)C=C3[C@@]4(C)C=C(C#N)C(=O)C(C)(C)[C@@H]4CC[C@@]3(C)[C@]1(C)CC2 [bardoxolone-methyl]
Result: 0.986

Problem: Respond only with normalized SmoIP GFP fluorescence recorded for "CCc1cccc(CC)c1NC(=O)N1Cc2[nH]nc(NC(=O)c3ccc(N4CCN(C)CC4)cc3)c2C1"
Result: 3.18

Problem: Identify measured normalized SmoIP GFP fluorescence corresponding to CC[C@@]1(O)C(=O)OCc2c1cc1n(c2=O)Cc2cc3c(CN(C)C)c(O)ccc3nc2-1 [Topotecan-Hydrochloride]
Result: 15.7

Problem: Retrieve normalized SmoIP GFP fluorescence measured for CC/C(=C(\c1ccccc1)c1ccc(OCCN(C)C)cc1)c1ccccc1 [Tamoxifen-Citrate(Nolvadex)] and print it.
Result: -6.61

Problem: Look up and report measured normalized SmoIP GFP fluorescence for this entry: CCCCc1nc(Cl)c(CO)n1Cc1ccc(-c2ccccc2-c2nnn[nH]2)cc1 [losartan-potassium]
Result: -1.56

Problem: Provide one value: measured normalized SmoIP GFP fluorescence of "O=C(c1ccc(Nc2nccc(-c3cc4ccccc4s3)n2)cc1)N1CCC(N2CCCC2)CC1"
Result: 1.1

---

Hi there, I'd appreciate the recorded normalized SmoIP GFP fluorescence for every entry that follows.
# System: Drosophila S2 cl14 SmoIP sensor cells
# assay procedure: normalized SmoIP GFP fluorescence (untreated unstimulated = 0%, untreated Hh-stimulated = 100%); higher = more Smo activation sensor fluorescence
# test parameters: stimulation: mock conditioned medium (-Hh); compound concentration: 2 uM; 24 h
Where a name gives a salt, the structure may show the parent alone.
API: value field is a number in %; no unit string.

Problem: Please respond with reported normalized SmoIP GFP fluorescence (system Drosophila S2 cl14 SmoIP sensor cells) for "O=C(O)c1ccc(C=C2SC(=S)N(c3cccc(C(F)(F)F)c3)C2=O)cc1" .
Result: 2.24

Problem: Using Drosophila S2 cl14 SmoIP sensor cells as the test system, report measured normalized SmoIP GFP fluorescence of "CC(=O)c1c(C)c2cnc(Nc3ccc(N4CCNCC4)cn3)nc2n(C2CCCC2)c1=O" .
Result: 3.72

Problem: Report value: normalized SmoIP GFP fluorescence, system: Drosophila S2 cl14 SmoIP sensor cells, molecule: "Nc1ccc2ncnc(NCCc3ccc(Oc4ccccc4)cc3)c2c1"
Result: 39.1

Problem: Enter recorded normalized SmoIP GFP fluorescence with Drosophila S2 cl14 SmoIP sensor cells for "Cc1ccc(C(=O)Nc2ccc(CN3CCN(C)CC3)c(C(F)(F)F)c2)cc1C#Cc1cnc2cccnn12" here.
Result: 11.3

Problem: Recall the reported normalized SmoIP GFP fluorescence of CN1[C@@H]2CC[C@H]1C[C@@H](OC(c1ccccc1)c1ccccc1)C2 [benztropine-mesylate] when tested on Drosophila S2 cl14 SmoIP sensor cells.
Result: -0.662

Problem: Under Drosophila S2 cl14 SmoIP sensor cells, report normalized SmoIP GFP fluorescence for CC(C)NCC(O)c1ccc(O)c(O)c1 (centres undefined) [Isoprenaline-hydrochloride]
Result: -14.1

Problem: Report value only: normalized SmoIP GFP fluorescence, Drosophila S2 cl14 SmoIP sensor cells, "CN1CC(=O)N2[C@H](c3ccc4c(c3)OCO4)c3[nH]c4ccccc4c3C[C@@H]2C1=O"
Result: -0.265

Problem: Name the value of normalized SmoIP GFP fluorescence reported for O=C(O)CCCN1CCC(O[C@@H](c2ccc(Cl)cc2)c2ccccn2)CC1 [bepotastine-besilate] when tested on Drosophila S2 cl14 SmoIP sensor cells.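 Also: flow cytometry read-out as median GFP intensity of gated cells, compounds added 30 min before Hh-conditioned or mock medium, mock-treated cells serving as unstimulated baseline.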
Result: -2.31

Problem: Quote Drosophila S2 cl14 SmoIP sensor cells normalized SmoIP GFP fluorescence for entry "COc1ccc2c(c1)c(CC(=O)N1CCOCC1)c(C)n2C(=O)c1ccc(Cl)cc1" .
Result: -2.59
